Some compounds, each annotated with its measured CC50 at 6 days.
protocol: Cytotoxicity on HELF cells (anti-HCMV cytopathogenicity test plates)
Format: cell-based
conditionContext: human, human lung fibroblasts (HELF), 6 days incubation
measuredEndpoint: CC50 at 6 days

> print(dat)
                                   compound    result
1  CC(C)[C@H](N)c1nc(-c2ccc(S(=O)(=O)Nc3cccc(NC(=O)C(C)(C)CF)c3)cc2)no1 [Example 3]  > 250 µM
2  CC1(C(=O)Nc2ccc(NS(=O)(=O)c3cccc(-c4noc([C@@H](N)CCCCN)n4)c3)cc2)CC1 [Example 1]  > 250 µM

----------
Tested on: MCMV (murine cytomegalovirus)
protocol: Anti-MCMV cytopathogenicity test
Assay type: cell-based
conditionContext: Murid betaherpesvirus 1, 120 h; MCMV on 3T3 mouse cells, M.O.I. 0.05–0.1, 5 days
measuredEndpoint: EC50

> print(dat)
                               smilesrecord    result
1  CC1(C(=O)Nc2ccc(NS(=O)(=O)c3cccc(-c4noc([C@@H](N)CCCCN)n4)c3)cc2)CC1  0.035 µM
2  CC(C)[C@H](N)c1nc(-c2ccc(S(=O)(=O)Nc3cccc(NC(=O)C(C)(C)CF)c3)cc2)no1  0.074 µM
